biological target: human dopamine reuptake transporter (Homo sapiens, UniProt Q01959); construct: expressed in transfected cells; host or cells: CHO-K1 or HEK293; experiment: cell-based; conditions: recombinant human dopamine transporter (DAT); read-out: Human IC50 (nM) hDAT
Sequence (Q01959 whole entry): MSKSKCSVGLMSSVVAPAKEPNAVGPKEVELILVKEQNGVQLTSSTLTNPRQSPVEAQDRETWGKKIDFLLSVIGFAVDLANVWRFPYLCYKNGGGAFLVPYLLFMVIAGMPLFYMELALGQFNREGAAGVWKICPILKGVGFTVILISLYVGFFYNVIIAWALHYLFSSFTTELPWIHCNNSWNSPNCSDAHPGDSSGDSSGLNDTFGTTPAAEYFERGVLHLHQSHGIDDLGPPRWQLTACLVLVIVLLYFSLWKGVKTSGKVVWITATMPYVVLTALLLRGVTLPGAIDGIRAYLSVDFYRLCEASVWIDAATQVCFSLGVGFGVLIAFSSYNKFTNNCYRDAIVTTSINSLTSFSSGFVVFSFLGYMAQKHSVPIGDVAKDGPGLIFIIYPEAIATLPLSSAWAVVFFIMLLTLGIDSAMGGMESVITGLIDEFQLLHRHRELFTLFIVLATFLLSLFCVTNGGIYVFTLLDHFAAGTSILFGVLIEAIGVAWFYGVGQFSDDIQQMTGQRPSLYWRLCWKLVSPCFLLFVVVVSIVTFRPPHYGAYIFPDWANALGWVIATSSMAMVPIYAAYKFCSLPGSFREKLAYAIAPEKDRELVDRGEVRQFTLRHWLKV
Counter-ions that a name gives are not always drawn.
Measured Property: log10(IC50) (log10 of the value in nM)

>>> df
                                    compound  recorded_value
 0  CN(C)CC1(c2ccc(Cl)c(Cl)c2)CCC(O)CC1 (stereo not drawn)            2.70
 1             CNCC1(c2ccc(Cl)c(Cl)c2)CC=CC1            2.03
 2  CC(N)C1(c2ccc(-c3ccoc3)cc2)CCCCC1 (single isomer, unassigned) [20 E1]            2.57
 3  NCC1(c2cccc(Cl)c2)CCCCC1 [Compound 28, hydrochloride]            2.85
 4  CCCC1(O)CCC(CN)(c2ccc(Cl)c(Cl)c2)CC1 (stereo not drawn)            3.39
 5            CN(C)CC1(c2ccc(Cl)cc2Cl)CCCCC1            2.55
 6  NCC1(c2ccc3ccccc3c2)CCC(F)CC1 (stereo not drawn) [Compound 213]            2.53
 7  CC1(O)CCCC(CN)(c2ccc(Cl)c(Cl)c2)C1 (single isomer, unassigned) [193 E2]            3.50
 8              CNCC1(c2ccc(Cl)c(Cl)c2)CCCC1            1.97
 9               NCC1(c2ccc3c(c2)OCO3)CCCCC1            3.67
10  CCC(N(C)C)C1(c2ccc(Cl)c(Cl)c2)CCCCC1 (single isomer, unassigned) [61 E1]            2.98
11  NCC1(c2ccc(F)c(F)c2)CCCCC1 [Compound 30, hydrochloride]            3.77
12  NCC1(c2ccc3ccccc3c2)CCC(O)(CF)CC1 (stereo not drawn) [Compound 218]            3.75
13                  CSc1ccc(C2(CN)CCCCC2)cc1            3.47
14  CN(C)CC1(c2ccc(OC(F)(F)F)cc2)CCC(C)(O)CC1 (stereo not drawn)            3.86
15             NCC1(c2ccc(F)c3ccccc23)CCCCC1            3.37
16  CNCC1(c2ccc3ccccc3c2)CCC(F)CC1 (stereo not drawn) [Compound 236]            2.65
17                  CNCC1(c2ccc(F)cc2)CCCCC1            3.53
18  NCC1(c2ccc(Cl)c(Cl)c2)CCC(F)CC1 (stereo not drawn) [Compound 253]            1.57
19               CNCC1(c2ccc(Cl)cc2Cl)CCCCC1            3.29
20              CNCC1(c2ccc3c(c2)OCO3)CCCCC1            3.89
21  CC(N(C)C)C1(c2ccc(OC(F)(F)F)cc2)CCCCC1 (single isomer, unassigned) [63 E1]            3.82
22  CC(N(C)C)C1(c2cccc3ccccc23)CCCCC1 (single isomer, unassigned) [60 E2]            3.83
23              CNCC1(c2ccc(Cl)c(F)c2)CCCCC1            2.51
24  NCC1(c2ccc(Cl)c(Cl)c2)CCC(Oc2ccccc2)CC1 (stereo not drawn)            3.16
25  CNCC1(c2ccc3c(c2)OCO3)CCC(C)(O)CC1 (stereo not drawn) [Compound 239]            3.98
26  CC(N(C)C)C1(c2ccc3ccccc3c2)CCC(C)(O)CC1 (single isomer, unassigned) [234 E2]            1.32
27                   NCC1(c2ccc(F)cc2)CCCCC1            3.26
28         CN(C)CC1(c2ccc3cc(F)ccc3c2)CCCCC1            2.54
29  CCC1(O)CCC(CN(C)C)(c2ccc(Cl)c(Cl)c2)CC1 (stereo not drawn) [Compound 283]            1.57
30           CNCC1(c2ccc(C(F)(F)F)cc2)CCCCC1            3.53

Provenance of the data: patent EP1976513B1
